Test: Pharmacokinetic study in male Sprague Dawley rats
Assay type: in vivo
Settings: male, Sprague Dawley, rat, plasma, po, 20 mg/kg, Oral (Dose: 20 mg/kg), non-compartmental analysis, read-out: Fabs (absolute bioavailability)
REPORTED PROPERTY: bioavailability
The reply should consist of the numeric value with the unit placed after it.

Which value of bioavailability has been reported for Oc1c(Br)cc(Cl)c2cccnc12 in the records?
4.6%

* * *

Assay: Pharmacokinetic study in male Sprague Dawley rats
Assay type: in vivo
Conditions: male, Sprague Dawley, rat, plasma, sc, 10 mg/kg, Subcutaneous (Dose: 10 mg/kg), two compartment model
REPORTED PROPERTY: Cmax (ng/mL)
Provide the reading as a plain figure in ng/mL.

Which value of Cmax has been reported for Oc1c(Br)cc(Cl)c2cccnc12 [Compound 5, 7-bromo-5-chloroquinolin-8-ol] in the records?
970
